Below is a list of entries, each paired with its recorded pEC50 value.
biological target: hGPR120 (Homo sapiens); construct: expressed in transfected cells; host or cells: CHO-K1; assay: Measurement of activity of GPR120 agonist (cell-based assay), calcium fluorescence; conditions: CHO-K1 cells expressing Ga16 and hGPR120; Calcium 5 dye fluorescence; activity class
Sequence (Q5NUL3 whole entry): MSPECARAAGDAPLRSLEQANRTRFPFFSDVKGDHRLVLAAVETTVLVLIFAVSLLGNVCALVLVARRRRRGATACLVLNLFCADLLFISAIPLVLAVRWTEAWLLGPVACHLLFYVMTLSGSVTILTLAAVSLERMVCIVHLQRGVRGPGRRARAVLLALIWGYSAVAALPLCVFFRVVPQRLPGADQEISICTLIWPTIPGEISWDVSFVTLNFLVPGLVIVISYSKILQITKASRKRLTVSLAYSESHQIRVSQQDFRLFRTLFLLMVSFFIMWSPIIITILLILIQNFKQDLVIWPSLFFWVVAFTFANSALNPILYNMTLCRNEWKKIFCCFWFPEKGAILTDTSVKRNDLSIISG
pEC50: −log10 of the molar value.

Examples with answers:
INSERT INTO assay_data (molecule, obs_value) VALUES
  ('Cc1c(OCc2cccnc2SCC2CC2)ccc(C2CC2C(=O)O)c1C (centres unmarked) [Example 106]', '< 4.70'),
  ('CC(C)Sc1ncccc1COc1ccc(CC(C)(C)C(=O)O)cc1 [Example 69]', '5.70 to 6.70'),
  ('O=C(O)C1CC1c1cc(F)c(OCc2cccnc2SC2CCCC2)c(F)c1 (centres unmarked) [Example 62]', '> 6.70'),
  ('O=C(O)C1CC1c1ccc(OCc2cccnc2SCC2CC2)c(Cl)c1 (centres unmarked) [Example 127]', '> 6.70');

Please examine the following record next.
## Task Which pEC50 value is on record for CC(C)Sc1cccc(COc2ccc(C3CC3C(=O)O)cc2Cl)n1 (centres unmarked) [Example 99] ?
## Result > 6.70
